Test: physchem
Details: hcl, pH 1.1, solubility
Structures can show the parent of a compound that is named as a salt.

| molecule | solubility [µg/mL] |
| --- | --- |
| CC(C)(C)NC(=O)[C@@H]1C[C@@H]2CCCC[C@@H]2CN1C[C@@H](O)[C@H](Cc1ccccc1)NC(=O)[C@H](CC(N)=O)NC(=O)c1ccc2ccccc2n1 [Compound A-mesylate salt] | 60 |
